System: H2228 lung cancer cell line
ASSAY TEXT: High-throughput screening, CellTiter-Glo cell viability assay at 100 nM
Type: cell-based, human
REPORTED CONDITIONS: Homo sapiens, NCI-H2228, HTS, compounds at 100 nM, 72 h, read-out: cytotoxicity expressed in IC50, H2228 (results of High throughput screening)
PROPERTY MEASURED: IC50

Cc1ccccc1CN1C(=O)C2=C(CCN(Cc3ccc(F)cc3C(F)(F)F)C2)N2CCN=C12 [I/12] ... > 0.1 µM
O=C1C2=C(CCN(Cc3ccc(F)cc3)C2)N2CCN=C2N1Cc1ccc(I)cc1 [I/55] ... > 0.1 µM
[N-]=[N+]=Nc1cccc(CN2CCC3=C(C2)C(=O)N(Cc2ccc(C(F)(F)F)cc2)C2=NCCN23)c1 [I/111] ... < 0.1 µM
O=C1C2=C(CCN(Cc3cc(F)c(F)c(F)c3)C2)N2CCN=C2N1Cc1ccc(I)cc1 [I/19] ... > 0.1 µM
O=C1C2=C(CCN(Cc3ccccc3)C2)N2CCN=C2N1CC1CCNCC1 [I/96] ... > 0.1 µM
Nc1ccc(CN2CCC3=C(C2)C(=O)N(Cc2ccc(I)cc2)C2=NCCN23)cc1 [I/87] ... > 0.1 µM
COc1cc(CN2C(=O)C3=C(CCN(Cc4ccc(N=[N+]=[N-])cc4)C3)N3CCN=C23)cc(OC)c1OC [I/116] ... > 0.1 µM
Cc1ccccc1CN1C(=O)C2=C(CCN(CC3CCNCC3)C2)N2CCN=C12 [I/94] ... > 0.1 µM
O=C1C2=C(CCN(Cc3cc(C(F)(F)F)cc(C(F)(F)F)c3)C2)N2CCN=C2N1Cc1ccc(I)cc1 [I/16] ... > 0.1 µM
O=C1C2=C(CCN(Cc3ccccc3)C2)N2CCN=C2N1Cc1cccc(I)c1 [I/56] ... > 0.1 µM
[N-]=[N+]=Nc1ccc(CN2CCC3=C(C2)C(=O)N(Cc2ccc(C(F)(F)F)c(F)c2)C2=NCCN23)cc1 [I/114] ... > 0.1 µM
[N-]=[N+]=Nc1cccc(CN2C(=O)C3=C(CCN(Cc4cccc(F)c4)C3)N3CCN=C23)c1 [I/105] ... ~0.1 µM
O=C1C2=C(CCN(Cc3ccccc3)C2)N2CCN=C2N1Cc1ccc(Br)cc1 [I/41] ... < 0.1 µM
O=C1C2=C(CCN(Cc3cccc(F)c3)C2)N2CCN=C2N1Cc1ccc([N+](=O)[O-])cc1F [I/49] ... < 0.1 µM
O=C1C2=C(CCN(Cc3ccccc3)C2)N2CCN=C2N1CC1CNC1 [I/90] ... > 0.1 µM
Nc1ccc(CN2CCC3=C(C2)C(=O)N(CC2CCNCC2)C2=NCCN23)cc1 [I/93] ... > 0.1 µM
COc1cc(CN2C(=O)C3=C(CCN(Cc4ccccc4)C3)N3CCN=C23)cc(OC)c1OC [I/51] ... > 0.1 µM
Nc1ccc(CN2CCC3=C(C2)C(=O)N(Cc2ccc(C(F)(F)F)cc2)C2=NCCN23)cc1 [I/81] ... > 0.1 µM
Cc1ccccc1CN1C(=O)C2=C(CCN(CC3CCNC3)C2)N2CCN=C12 (stereo not shown) [I/97] ... > 0.1 µM
COCCOc1cc2ncnc(Nc3cccc(-c4cn(-c5ccc(CN6C(=O)C7=C(CCN(Cc8ccccc8)C7)N7CCN=C67)cc5)nn4)c3)c2cc1OCCOC [I/123] ... > 0.1 µM
[N-]=[N+]=Nc1ccc(CN2C(=O)C3=C(CCN(Cc4cc(F)cc(F)c4)C3)N3CCN=C23)cc1 [I/107] ... < 0.1 µM
O=C1C2=C(CCN(CC3CCCN3)C2)N2CCN=C2N1Cc1ccc(F)cc1 (stereo not shown) [I/100] ... > 0.1 µM
O=C1C2=C(CCN(Cc3ccc(F)c(F)c3)C2)N2CCN=C2N1Cc1ccc(I)cc1 [I/17] ... > 0.1 µM
NCc1cccc(CN2C(=O)C3=C(CCN(Cc4cccc(F)c4)C3)N3CCN=C23)c1 [I/60] ... > 0.1 µM
NCc1ccc(CN2C(=O)C3=C(CCN(Cc4ccccc4)C3)N3CCN=C23)cc1 [I/62] ... > 0.1 µM
O=C1C2=C(CCN(Cc3cccc(C(F)(F)F)c3)C2)N2CCN=C2N1Cc1ccc(F)cc1 [I/32] ... > 0.1 µM
O=C1C2=C(CCN(Cc3cccc(F)c3)C2)N2CCN=C2N1Cc1ccc(I)cc1 [I/46] ... ~0.1 µM
O=C1C2=C(CCN(Cc3cc(F)cc(F)c3)C2)N2CCN=C2N1Cc1ccc(F)cc1 [I/7] ... < 0.1 µM
O=C1C2=C(CCN(Cc3ccc(F)c(F)c3)C2)N2CCN=C2N1Cc1ccc(F)cc1 [I/23] ... > 0.1 µM
O=C1C2=C(CCN(Cc3cc(F)cc(F)c3)C2)N2CCN=C2N1Cc1ccc(Br)cc1 [I/39] ... < 0.1 µM
O=C1C2=C(CCN(Cc3cccc(F)c3)C2)N2CCN=C2N1Cc1ccc(F)cc1 [I/6, reference compound] ... < 0.1 µM
O=C1C2=C(CCN(Cc3cc(F)cc(F)c3)C2)N2CCN=C2N1Cc1ccc(I)cc1 [I/38] ... < 0.1 µM
O=C1C2=C(CCN(Cc3ccccc3)C2)N2CCN=C2N1Cc1ccc(F)cc1 [I/5] ... > 0.1 µM
COc1cc(CN2C(=O)C3=C(CCN(Cc4ccc(N)cc4)C3)N3CCN=C23)cc(OC)c1OC [I/89] ... > 0.1 µM

----------
Tested on: MIA PaCa-2 (pancreas, carcinoma) cells
ASSAY TEXT: Cell viability assay, CellTiter-Glo (Example 21)
Assay type: cell-based, human
REPORTED CONDITIONS: 300 nM, 72 h treatment
PROPERTY MEASURED: MIA PaCa-2 (pancreas, carcinoma) cell viability (% of control)

O=C1C2=C(CCN(Cc3cccc(F)c3)C2)N2CCN=C2N1Cc1ccc(F)cc1 [I/6, reference compound] ... 19.5 ± 7.5 % of control
O=C1C2=C(CCN(Cc3cc(F)cc(F)c3)C2)N2CCN=C2N1Cc1ccc(F)cc1 ... 19.8 ± 8.6 % of control
O=C1C2=C(CCN(Cc3cc(F)cc(F)c3)C2)N2CCN=C2N1Cc1ccc(Cl)cc1 ... 18.0 ± 7.3 % of control
O=C1C2=C(CCN(Cc3cc(F)cc(F)c3)C2)N2CCN=C2N1Cc1ccc(C(F)(F)F)cc1 ... 17.6 ± 7.6 % of control

----------
Detroit 562 (pharynx, carcinoma) cell viability (% of control) for assorted compounds
Test system: Detroit 562 (pharynx, carcinoma) cells
ASSAY TEXT: Cell viability assay, CellTiter-Glo (Example 21)
Assay type: cell-based, human
REPORTED CONDITIONS: 300 nM, 72 h treatment
Method: Effect of the selected compounds on cancer cell viability was measured via CellTiter-Glo® luminescent cell viability assay (Promega, Madison, WI, USA) according to the manufacturer's instructions. Cells were plated onto a flat-bottomed, white 96 well plate (BRANDplates®, cat. no.: 781965). […] After the treatment, the luminescence signal was recorded using a microplate reader (BioTek Synergy 2 Multi-Mode Reader, BioTek, Winooski, VT, USA). […]
PROPERTY MEASURED: Detroit 562 (pharynx, carcinoma) cell viability (% of control)

O=C1C2=C(CCN(Cc3cc(F)cc(F)c3)C2)N2CCN=C2N1Cc1ccc(F)cc1 ... 33.0 ± 4.8 % of control
[N-]=[N+]=Nc1cccc(CN2CCC3=C(C2)C(=O)N(Cc2ccc(Cl)cc2)C2=NCCN23)c1 ... 31.3 ± 4.1 % of control
[N-]=[N+]=Nc1cccc(CN2CCC3=C(C2)C(=O)N(Cc2ccc(C(F)(F)F)cc2)C2=NCCN23)c1 ... 28.8 ± 3.8 % of control
O=C1C2=C(CCN(Cc3cc(F)cc(F)c3)C2)N2CCN=C2N1Cc1ccc(Cl)cc1 ... 31.5 ± 3.7 % of control
O=C1C2=C(CCN(Cc3cccc(F)c3)C2)N2CCN=C2N1Cc1ccc(C(F)(F)F)cc1 [I/3, reference compound] ... 28.7 ± 4.1 % of control
O=C1C2=C(CCN(Cc3cc(F)cc(F)c3)C2)N2CCN=C2N1Cc1ccc(C(F)(F)F)cc1 ... 28.7 ± 2.5 % of control
[N-]=[N+]=Nc1ccc(CN2C(=O)C3=C(CCN(Cc4cc(F)cc(F)c4)C3)N3CCN=C23)cc1 ... 34.1 ± 6.5 % of control
O=C1C2=C(CCN(Cc3ccccc3)C2)N2CCN=C2N1Cc1ccc(C(F)(F)F)cc1 [I/1, reference compound] ... 32.0 ± 5.0 % of control
O=C1C2=C(CCN(Cc3cccc(F)c3)C2)N2CCN=C2N1Cc1ccc(F)cc1 [I/6, reference compound] ... 33.0 ± 3.4 % of control
